- System: SH-SY5Y M-currents (KCNQ2, KCNQ3 and KCNQ5)
- Protocol details: SH-SY5Y native cell line FLIPR assay (voltage-sensitive dye DiBAC)
- Assay type: cell-based, mouse neuroblastoma, rat glioma hybrid cell line
- Setup conditions: FLIPR assay, SH-SY5Y native cell line; Table 2; read-out: SH-SY5Y EC50
Observable: EC50

Here is how some compounds turned out for EC50.
[
  {
    "Smiles": "O=C(Nc1nc2ccc(F)cn2c1-c1ccc(OC(F)(F)F)cc1)[C@@H]1CCCO1",
    "Observable": "EC50",
    "Assay value": "3000 to 10000 nM"
  },
  {
    "Smiles": "O=C(CC1CCCC1)Nc1nc2ccc(F)cn2c1-c1ccc(F)cc1F",
    "Observable": "EC50",
    "Assay value": "500 to 3000 nM"
  },
  {
    "Smiles": "O=C(Cc1ccccc1)Nc1nc2cc(C(F)(F)F)ccn2c1-c1ccc(F)cc1",
    "Observable": "EC50",
    "Assay value": "500 to 3000 nM"
  }
]

Now consider the entry below.
q: Using the record for COc1ccc2nc(NC(=O)CC(C)(C)C)c(-c3cccc(C(F)(F)F)c3)n2n1 , report its EC50.
a: 500 to 3000 nM
